Listed here are compounds together with their documented relative viability.
# Tested on: H3255
# EXPERIMENT DESCRIPTION: relative viability (nuclei count vs DMSO), 5 days (fraction); higher = more cells survive
# MEASUREMENT CONTEXT: first compound 0.5 µM

COMPOUND | relative viability
CC1(C)CCC(c2ccc(Cl)cc2)=C(CN2CCN(c3ccc(C(=O)NS(=O)(=O)c4ccc(N[C@H](CCN5CCOCC5)CSc5ccccc5)c(S(=O)(=O)C(F)(F)F)c4)cc3)CC2)C1 [Navitoclax] + CC(=O)c1c(C)c2cnc(Nc3ccc(N4CCNCC4)cn3)nc2n(C2CCCC2)c1=O [Palbociclib] (partner 0.5 µM) | 0.316
CC1(C)CCC(c2ccc(Cl)cc2)=C(CN2CCN(c3ccc(C(=O)NS(=O)(=O)c4ccc(N[C@H](CCN5CCOCC5)CSc5ccccc5)c(S(=O)(=O)C(F)(F)F)c4)cc3)CC2)C1 [Navitoclax] + CS(=O)(=O)CCNCc1ccc(-c2ccc3ncnc(Nc4ccc(OCc5cccc(F)c5)c(Cl)c4)c3c2)o1 [Lapatinib] (partner 2 µM) | 0.19
CC1(C)CCC(c2ccc(Cl)cc2)=C(CN2CCN(c3ccc(C(=O)NS(=O)(=O)c4ccc(N[C@H](CCN5CCOCC5)CSc5ccccc5)c(S(=O)(=O)C(F)(F)F)c4)cc3)CC2)C1 [Navitoclax] + Nc1nc2[nH]cc(CCc3ccc(C(=O)N[C@@H](CCC(=O)O)C(=O)O)cc3)c2c(=O)[nH]1 [Pemetrexed] (partner 0.2 µM) | 0.545

---

# System: NCI-H1395
# EXPERIMENT DESCRIPTION: relative viability (nuclei count vs DMSO), 5 days (fraction); higher = more cells survive
# MEASUREMENT CONTEXT: first compound 1.265 µM

MOLECULE | SYSTEM NAME | relative viability
O=C(O)c1ccc(-c2c[nH]c3ncc(-c4ccccc4)cc23)cc1C1CCCC1 + COc1cc2c(Oc3ccc(NC(=O)C4(C(=O)Nc5ccc(F)cc5)CC4)cc3F)ccnc2cc1OCCCN1CCOCC1 [Foretinib] (partner 0.25 µM) | NCI-H1395 | 0.944
O=C(O)c1ccc(-c2c[nH]c3ncc(-c4ccccc4)cc23)cc1C1CCCC1 + N=C(N)NC(=N)NCCc1ccccc1 [Phenformin] (partner 250 µM) | NCI-H1395 | 0.414
O=C(O)c1ccc(-c2c[nH]c3ncc(-c4ccccc4)cc23)cc1C1CCCC1 + O=C(c1cc(Cc2n[nH]c(=O)c3ccccc23)ccc1F)N1CCN(C(=O)C2CC2)CC1 [Olaparib] (partner 8 µM) | NCI-H1395 | 0.444
O=C(O)c1ccc(-c2c[nH]c3ncc(-c4ccccc4)cc23)cc1C1CCCC1 + C[C@]1(O)C[C@@H](c2nc(-c3ccc4ccc(-c5ccccc5)nc4c3)c3c(N)nccn32)C1 [Linsitinib] (partner 1 µM) | NCI-H1395 | 0.796

---

# System: NCI-H2009
# EXPERIMENT DESCRIPTION: relative viability (nuclei count vs DMSO), 5 days (fraction); higher = more cells survive
# MEASUREMENT CONTEXT: first compound 0.1581 µM
Recorded relative viability for the following compounds

COMPOUND | relative viability
CC1(C)CCC(c2ccc(Cl)cc2)=C(CN2CCN(c3ccc(C(=O)NS(=O)(=O)c4ccc(N[C@H](CCN5CCOCC5)CSc5ccccc5)c(S(=O)(=O)C(F)(F)F)c4)cc3)CC2)C1 [Navitoclax] + CC(C)C[C@H](NC(=O)[C@H](Cc1ccccc1)NC(=O)c1cnccn1)B(O)O [Bortezomib] (partner 0.002 µM) | 0.979
CC1(C)CCC(c2ccc(Cl)cc2)=C(CN2CCN(c3ccc(C(=O)NS(=O)(=O)c4ccc(N[C@H](CCN5CCOCC5)CSc5ccccc5)c(S(=O)(=O)C(F)(F)F)c4)cc3)CC2)C1 [Navitoclax] + O=C(c1cc(Cc2n[nH]c(=O)c3ccccc23)ccc1F)N1CCN(C(=O)C2CC2)CC1 [Olaparib] (partner 8 µM) | 0.6
CC1(C)CCC(c2ccc(Cl)cc2)=C(CN2CCN(c3ccc(C(=O)NS(=O)(=O)c4ccc(N[C@H](CCN5CCOCC5)CSc5ccccc5)c(S(=O)(=O)C(F)(F)F)c4)cc3)CC2)C1 [Navitoclax] + C[C@@H](Oc1cc(-c2cnn(C3CCNCC3)c2)cnc1N)c1c(Cl)ccc(F)c1Cl [Crizotinib] (partner 1 µM) | 1.13
CC1(C)CCC(c2ccc(Cl)cc2)=C(CN2CCN(c3ccc(C(=O)NS(=O)(=O)c4ccc(N[C@H](CCN5CCOCC5)CSc5ccccc5)c(S(=O)(=O)C(F)(F)F)c4)cc3)CC2)C1 [Navitoclax] + COc1cccc2cc(-c3nc([C@H]4CC[C@H](C(=O)O)CC4)n4ncnc(N)c34)[nH]c12 [OSI-027] (partner 0.5 µM) | 0.643
CC1(C)CCC(c2ccc(Cl)cc2)=C(CN2CCN(c3ccc(C(=O)NS(=O)(=O)c4ccc(N[C@H](CCN5CCOCC5)CSc5ccccc5)c(S(=O)(=O)C(F)(F)F)c4)cc3)CC2)C1 [Navitoclax] + Nc1nc2[nH]cc(CCc3ccc(C(=O)N[C@@H](CCC(=O)O)C(=O)O)cc3)c2c(=O)[nH]1 [Pemetrexed] (partner 0.2 µM) | 1.04
CC1(C)CCC(c2ccc(Cl)cc2)=C(CN2CCN(c3ccc(C(=O)NS(=O)(=O)c4ccc(N[C@H](CCN5CCOCC5)CSc5ccccc5)c(S(=O)(=O)C(F)(F)F)c4)cc3)CC2)C1 [Navitoclax] + Nc1ncn([C@H]2C[C@H](O)[C@@H](CO)O2)c(=O)n1 [Decitabine] (partner 2 µM) | 0.342

---

Below, each entry is listed alongside its reported relative viability.
# Test system: NCI-H1650
# EXPERIMENT DESCRIPTION: relative viability (nuclei count vs DMSO), 5 days (fraction); higher = more cells survive
# MEASUREMENT CONTEXT: first compound 0.05 µM
MEASURED METRIC: relative viability

MOLECULE | ASSAY RESULT
CC1(C)CCC(c2ccc(Cl)cc2)=C(CN2CCN(c3ccc(C(=O)NS(=O)(=O)c4ccc(N[C@H](CCN5CCOCC5)CSc5ccccc5)c(S(=O)(=O)C(F)(F)F)c4)cc3)CC2)C1 [Navitoclax] + CCNC(=O)c1noc(-c2cc(C(C)C)c(O)cc2O)c1-c1ccc(CN2CCOCC2)cc1 [Luminespib] (partner 0.01 µM) | 0.167
CC1(C)CCC(c2ccc(Cl)cc2)=C(CN2CCN(c3ccc(C(=O)NS(=O)(=O)c4ccc(N[C@H](CCN5CCOCC5)CSc5ccccc5)c(S(=O)(=O)C(F)(F)F)c4)cc3)CC2)C1 [Navitoclax] + COc1cc2c(Oc3ccc(NC(=O)C4(C(=O)Nc5ccc(F)cc5)CC4)cc3F)ccnc2cc1OCCCN1CCOCC1 [Foretinib] (partner 0.25 µM) | 1.12
CC1(C)CCC(c2ccc(Cl)cc2)=C(CN2CCN(c3ccc(C(=O)NS(=O)(=O)c4ccc(N[C@H](CCN5CCOCC5)CSc5ccccc5)c(S(=O)(=O)C(F)(F)F)c4)cc3)CC2)C1 [Navitoclax] + Nc1nc2[nH]cc(CCc3ccc(C(=O)N[C@@H](CCC(=O)O)C(=O)O)cc3)c2c(=O)[nH]1 [Pemetrexed] (partner 0.2 µM) | 0.298
CC1(C)CCC(c2ccc(Cl)cc2)=C(CN2CCN(c3ccc(C(=O)NS(=O)(=O)c4ccc(N[C@H](CCN5CCOCC5)CSc5ccccc5)c(S(=O)(=O)C(F)(F)F)c4)cc3)CC2)C1 [Navitoclax] + Cc1cc(Nc2cc(N3CCN(C)CC3)nc(Sc3ccc(NC(=O)C4CC4)cc3)n2)n[nH]1 [Tozasertib] (partner 0.1 µM) | 0.415
CC1(C)CCC(c2ccc(Cl)cc2)=C(CN2CCN(c3ccc(C(=O)NS(=O)(=O)c4ccc(N[C@H](CCN5CCOCC5)CSc5ccccc5)c(S(=O)(=O)C(F)(F)F)c4)cc3)CC2)C1 [Navitoclax] + CS(=O)(=O)CCNCc1ccc(-c2ccc3ncnc(Nc4ccc(OCc5cccc(F)c5)c(Cl)c4)c3c2)o1 [Lapatinib] (partner 2 µM) | 0.88

---

# Tested on: NCI-H2009
# EXPERIMENT DESCRIPTION: relative viability (nuclei count vs DMSO), 5 days (fraction); higher = more cells survive
# MEASUREMENT CONTEXT: first compound 0.253 µM
MEASURED METRIC: relative viability

MOLECULE | ASSAY RESULT
Oc1nc(-c2ccc(C(F)(F)F)cc2)nc2c1CSCC2 [XAV939] + Cc1nc(Nc2ncc(C(=O)Nc3c(C)cccc3Cl)s2)cc(N2CCN(CCO)CC2)n1 [Dasatinib] (partner 0.075 µM) | 0.271
C=C1C(=O)O[C@@H](CCCCCCCC)[C@@H]1C(=O)O [C-75] + COc1cccc2cc(-c3nc([C@H]4CC[C@H](C(=O)O)CC4)n4ncnc(N)c34)[nH]c12 [OSI-027] (partner 0.5 µM) | 0.686
C=C1C(=O)O[C@@H](CCCCCCCC)[C@@H]1C(=O)O [C-75] + CS(=O)(=O)CCNCc1ccc(-c2ccc3ncnc(Nc4ccc(OCc5cccc(F)c5)c(Cl)c4)c3c2)o1 [Lapatinib] (partner 2 µM) | 0.88
